# TARGET ENTITY: T1, human IL-23 (human, UniProt P29460 23-328; Q9NPF7 20-189)
# T1 construct: Recombinant (Ebioscience); HIS-tagged in flow cytometry, biotinylated in some assays; also called hIL-23; rhIL-23
# T1 sequence 1: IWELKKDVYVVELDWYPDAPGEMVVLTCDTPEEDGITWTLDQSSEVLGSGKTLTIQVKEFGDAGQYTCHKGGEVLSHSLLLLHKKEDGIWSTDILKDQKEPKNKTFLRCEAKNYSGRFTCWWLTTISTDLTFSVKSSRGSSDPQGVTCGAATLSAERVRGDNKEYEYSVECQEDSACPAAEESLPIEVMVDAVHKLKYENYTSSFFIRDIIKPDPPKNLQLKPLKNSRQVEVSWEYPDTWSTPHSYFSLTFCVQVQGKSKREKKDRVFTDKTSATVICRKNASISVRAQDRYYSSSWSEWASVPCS
# T1 sequence 2: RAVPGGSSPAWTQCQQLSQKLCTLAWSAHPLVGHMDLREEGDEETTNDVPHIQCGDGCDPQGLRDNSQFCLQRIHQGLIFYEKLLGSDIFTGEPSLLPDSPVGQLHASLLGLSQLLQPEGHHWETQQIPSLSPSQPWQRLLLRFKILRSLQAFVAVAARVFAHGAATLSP
# ASSAY PROCEDURE: ELISA, coated IL-23
RECORDED METRIC: binding result

Antibody 191 (antibody, human IgG1, kappa, V domains shown) VH: QVQLVQSGAEVKKPGASVKVSCKASGYTFTDYYLHWVRQAPGQGLEWMGWIDPENGDTEYAPKFQGRVTMTTDTSTSTAYMELRSLRSDDTAVYYCAANKELRYFDVWGQGTMVTVSS VL: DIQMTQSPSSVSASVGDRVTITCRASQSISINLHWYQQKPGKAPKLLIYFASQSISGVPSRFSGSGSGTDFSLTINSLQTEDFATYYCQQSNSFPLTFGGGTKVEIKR; binds
Antibody 201 (antibody, human IgG1, kappa, V domains shown) VH: QVQLVQSGAEVKKPGASVKVSCKASGYTFTDYYLHWVRQAPGQGLEWMGWIDPENGDTESAPKFQGRVTMTTDTSTSTAYMELRSLRSDDTAVYYCAANKELRYFDVWGQGTMVTVSS VL: EIVMTQSPATLSVSPGERATLSCRASQSISINLHWYQQKPGQAPRLLIYFASQSISGIPARFSGSGSGTEFTLTISSLQSEDFAVYYCQQSNSFPLTFGGGTKVEIKR; binds
Antibody 175 (antibody, human IgG1, kappa, V domains shown) VH: EVQLVQSGAEVKKPGATVKISCKASGYAFSDYYLHWVRQAPEKGLEWMGWIDPENGDTEYAPKFQGRVTITADTSTDTGYLELSSLRSEDTAVYYCAANKELRYFDVWGQGTLVTVSS VL: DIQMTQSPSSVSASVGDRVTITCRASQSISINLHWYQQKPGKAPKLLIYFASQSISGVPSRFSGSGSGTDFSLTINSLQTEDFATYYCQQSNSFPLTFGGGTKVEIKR; binds

Numbers sourced from patent US20110262445A1.
